Hello, the source for this data is the supplement of paper PMC9170038, in case you need it.

- System: MS2 coat protein
- procedure-summary: apparent KD of MS2 coat protein, switch OFF state (with FMN for OFF switches, without FMN for ON switches); designed switch direction (-1 OFF switch, 1 ON switch): 1; higher = weaker reporter binding
- conditions-used: FMN input: 0 or 200 uM; Eterna round: R93 (includes R88 designs)
# binarize apparent KD of MS2 coat protein: threshold 60 nM inclusive, high side 1 (yes), low side 0 (no)

residue-codes	answer-label
AAAAGACAUGAGGAUCACCCAUGUGAAAACGUGCGAGGAUAUGUGUGGAAACCGUACUAUACAGAAGGCGCGUGUC [SS1 - 84]	0 (no)
GACAAACAUGAGGAUCACCCAUGUAGAAAUAUGGGAGGAUAUACACAGACGAAAGUCAAAGUAGAAGGCCUACAAG [77%, Mat - Mod of Eli - With 3 more C's]	1 (yes)
GAAAAACAUGAGGAUCACCCAUGUAGAAACAUGGGAGGAUAUACAAAGACGAAAGUCAAAGUAGAAGGCCUAAAAG [Mat - Same State 1 - Mod - D159]	1 (yes)
AAGAAAGAAACAUAGGAUAUCAAGGAUAUAACAUGAGGAUCACCCAUGUAAAUACGAAAGUAUAAUGAGAAGGAUGGAUGAUCUAC [Meechl MS2 SS2 3]	1 (yes)
AGAAAUAAACCUCAGGAUAUGGGUAAAUAAACAUGAGGAUCACCCAUGUAAAAGAAAAUAAAAAACCAGAAGGGAGAAAAUAAGA [Designing denovo 1]	0 (no)
